Source of measurements: PubChem BioAssay

Target under test: Plasmodium falciparum protein kinase 6 (PK6, PF3D7_1337100)
Method summary: PfPK6 kinase inhibitors, biochemical, TCAMS library (AID 1159586)
Condition label: recombinant PfPK6, Kinase-Glo ATP depletion luminescence
Results with a measured potency or affinity are listed apart. Calls of active or inactive are those of the source. How the calls were made is not given here.
Reported endpoint: outcome

[[record]]
compound = "CCc1ccc(CN2CCCCC(NC(=O)c3cc(-c4ccccc4F)cs3)C2)cc1 (centres undefined)"
reported_endpoint = "outcome"
endpoint_value = "inactive"

[[record]]
compound = "FC(F)(F)c1cc(Nc2ccc(Oc3ccccc3)cc2)c2cc(-c3ccncc3)ccc2n1"
reported_endpoint = "outcome"
endpoint_value = "inactive"

[[record]]
compound = "Cc1ncccc1C(=O)Nc1cccc(-c2cccc(-c3nc4ccc(C(F)(F)F)cc4[nH]3)c2)c1"
reported_endpoint = "outcome"
endpoint_value = "inactive"

[[record]]
compound = "CC(=O)Nc1ccc(C(=O)Nc2ccc(-c3cccc(-c4nc5c(C)cccc5[nH]4)c3)cc2)cn1"
reported_endpoint = "outcome"
endpoint_value = "inactive"

[[record]]
compound = "CN(C(=O)c1snnc1-c1ccccc1)C1CCN(CCCCCNC(=O)/C=C/c2ccc(Cl)c(Cl)c2)CC1"
reported_endpoint = "outcome"
endpoint_value = "inactive"

[[record]]
compound = "CC(C)(Oc1c(C2CCN(CCCCNC(=O)c3ccc(-c4ccc(C#N)cc4)cc3)CC2)ccc2c1CCCC2)C(N)=O"
reported_endpoint = "outcome"
endpoint_value = "inactive"

[[record]]
compound = "CN(C)CCN(Cc1ccc(-c2ccc(CNCCc3ccccc3)cc2)nc1)C(=O)CCC1CCCC1"
reported_endpoint = "outcome"
endpoint_value = "inactive"

[[record]]
compound = "CC(C)COc1ccc(Cl)cc1Cc1ccc(-c2nc3ccc(CCN(C)C)cc3[nH]2)o1"
reported_endpoint = "outcome"
endpoint_value = "inactive"

[[record]]
compound = "O=C(/C=C/c1ccc(Cl)c(Cl)c1)NCCCCCN1CCC(NC(=O)c2ccc(F)cc2F)CC1"
reported_endpoint = "outcome"
endpoint_value = "inactive"


###

Method summary: human hepatoma cell viability loss – ATP luminescence, cytotoxicity control for P. falciparum antimalarial project, primary screen (AID 2303);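 further: 0% = DMSO wells and 100% = digitonin-killed cells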
Condition label: HepG2 viability, 24-48 h, at 10 µM, hits give high values
Reported endpoint: inhibition (%)

[[record]]
compound = "N#Cc1ccc(N2CCN(Cc3cccc(-c4ccc(-c5nc6ccccc6[nH]5)cc4)c3)CC2)nc1"
units = "%"
endpoint_value = 45

[[record]]
compound = "Cc1cccc(CN2CCCN(Cc3ccc(C(=O)Nc4ccc(C(C)(C)C)cc4)cc3)CC2)c1"
units = "%"
endpoint_value = 57

[[record]]
compound = "COc1ccc2nc(C)cc(Nc3ccc(Oc4ccc5ccccc5c4)c(Cl)c3)c2c1"
units = "%"
endpoint_value = 40

[[record]]
compound = "CCN1CCN(c2cc(C)c3cc(NC(=O)c4ccc(OC)c([N+](=O)[O-])c4)ccc3n2)CC1"
units = "%"
endpoint_value = 25

[[record]]
compound = "COc1ccc2nccc([C@@H](O)CN3CCC(NC(=O)C(=Cc4ccc(C#N)cc4)c4ccc(-c5ccccc5)cc4)CC3)c2c1"
units = "%"
endpoint_value = 5

[[record]]
compound = "C=C(C)CSc1nc2c(c(=O)n1Cc1ccco1)C1(CCCCC1)Cc1ccccc1-2"
units = "%"
endpoint_value = 2

[[record]]
compound = "Cc1ccc(CCOCCCCCNCC(O)c2cc(Cl)c(N)c(Cl)c2)cc1 (centres undefined)"
units = "%"
endpoint_value = 10

[[record]]
compound = "CCOc1ccccc1C(=O)N1CCc2cc3nccc(N4CCN5CCC[C@H]5C4)c3cc21"
units = "%"
endpoint_value = 4

[[record]]
compound = "S=C(NCCc1ccccc1)Nc1ccc2ncsc2c1"
units = "%"
endpoint_value = -20

